# credit: patent US7932290B2

- TESTED TARGET: Mouse PPARα LBD fusion protein (Mus musculus)
- Sequence (P23204 239-466): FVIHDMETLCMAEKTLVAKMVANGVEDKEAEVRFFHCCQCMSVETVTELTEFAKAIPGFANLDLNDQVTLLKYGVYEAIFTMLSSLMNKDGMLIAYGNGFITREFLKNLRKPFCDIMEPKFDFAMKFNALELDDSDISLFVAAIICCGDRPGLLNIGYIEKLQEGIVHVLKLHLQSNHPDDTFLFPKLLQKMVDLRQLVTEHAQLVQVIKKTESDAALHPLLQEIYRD
- MEASUREMENT DESCRIPTION: Transcription activation potential, GAL4 luciferase reporter in C3A cells
- Format: cell-based
- TEST CONTEXT: 10 μM, Table 20a
READOUT: transcription activation potential (luciferase) ± standard deviation (LCPS)

(P) Cc1cccc(C)c1COc1cccc(CCCC(=O)O)c1
(Q) Cc1cccc(C)c1COc1cccc(CC(=O)O)c1
(R) Cc1cccc(C)c1COc1cccc(C(=O)O)c1
(S) Cc1cccc(C)c1COc1cccc(C(=O)CCC(=O)O)c1
(T) Cc1cccc(Nc2cc(Cl)nc(SCC(=O)O)n2)c1C [Wy, reference compound]
Request: Lab note: rank above entries, transcription activation potential (luciferase) ± standard deviation ascending. Response format: the labels, sorted as the prompt asks.
Result: P, R, S, Q, T

----------
- TESTED TARGET: Human PPARα LBD fusion protein (Homo sapiens)
- Construct: a.a; 167-468)
- Sequence (Q07869 167-468): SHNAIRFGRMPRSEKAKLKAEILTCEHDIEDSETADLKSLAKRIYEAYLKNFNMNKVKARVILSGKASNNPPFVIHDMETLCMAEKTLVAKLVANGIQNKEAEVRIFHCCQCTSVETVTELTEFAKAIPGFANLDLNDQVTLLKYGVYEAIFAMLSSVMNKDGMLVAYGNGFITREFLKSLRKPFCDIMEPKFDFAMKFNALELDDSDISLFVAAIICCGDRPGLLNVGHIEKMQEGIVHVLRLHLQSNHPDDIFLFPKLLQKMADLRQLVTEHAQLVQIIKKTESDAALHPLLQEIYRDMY
- MEASUREMENT DESCRIPTION: Transcription activation potential, GAL4 luciferase reporter in C3A cells
- Format: cell-based
- TEST CONTEXT: 200 μM
READOUT: transcription activation potential (luciferase) ± standard deviation (LCPS)

Study these solved cases before continuing.
Cc1cccc(C)c1COc1cccc(CCCC(=O)O)c1    12.8
Cc1cccc(C)c1COc1cccc(CC(=O)O)c1    12.9

(P) Cc1cccc(C)c1COc1cccc(C(=O)O)c1
(Q) Cc1cccc(C)c1COc1cccc(C(=O)CCC(=O)O)c1
Request: Param pair: P , Q . Output: the one whose transcription activation potential (luciferase) ± standard deviation is numerically greater. // caller expects the label of the chosen entry
Result: P

----------
- TESTED TARGET: Mouse PPARγ LBD fusion protein (Mus musculus, UniProt P37238)
- Sequence (P37238 238-503): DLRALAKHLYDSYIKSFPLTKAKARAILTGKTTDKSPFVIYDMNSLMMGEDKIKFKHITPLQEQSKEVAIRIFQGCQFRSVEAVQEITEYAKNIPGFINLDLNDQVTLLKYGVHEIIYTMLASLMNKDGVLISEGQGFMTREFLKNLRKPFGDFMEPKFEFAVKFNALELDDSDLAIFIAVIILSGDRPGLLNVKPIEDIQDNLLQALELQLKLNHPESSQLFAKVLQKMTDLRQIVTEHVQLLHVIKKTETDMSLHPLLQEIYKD
- MEASUREMENT DESCRIPTION: Transcription activation potential, GAL4 luciferase reporter in C3A cells
- Format: cell-based
- TEST CONTEXT: 3 μM test compound, Table 20b
READOUT: transcription activation potential (luciferase) ± standard deviation (LCPS)

Study these solved cases before continuing.
Cc1cccc(C)c1COc1cccc(CCCC(=O)O)c1    13.43
Cc1cccc(C)c1COc1cccc(CC(=O)O)c1    10.6

(a) Cc1cccc(C)c1COc1cccc(C(=O)CCC(=O)O)c1
(b) Cc1cccc(C)c1COc1cccc(C(=O)O)c1
Request: # min-compare on transcription activation potential (luciferase) ± standard deviation between a and b // caller expects the label of the chosen entry
Result: a
